Data origin: patent US12643912B2

- target: Keap1 (A321-C624) (h) (Homo sapiens)
- Construct: His-Thromb-KEAP1(A321-C624) acquired from Novalix (batch PU-P01) was immobilized covalently by amine coupling; His tag (N); thrombin cleavage site (Thromb) (N)
- protocol description: Surface Plasmon Resonance binding assay to Kelch domain of KEAP1
- measurement context: Biacore T200, 25° C., immobilized His-Thromb-KEAP1(A321-C624), single cycle kinetics, KD=kd/ka from 1:1 fit; read-out: Keap1 (A321-C624) (h) direct/SPR (KD)
reported property: Kd (nM)
Number in nM, nothing else.

Some entries whose results are on file:
COc1c(Cl)cc2cc1CN1Cc3cc(ccc3OS1(=O)=O)OCCCCn1nnc3c(C)c(ccc31)C2CC(=O)O (single isomer, unassigned) [Example 37a] | 75.1
COc1cc2cc(c1OC)CN1Cc3cc(ccc3OS1(=O)=O)OCCCCn1nnc3c(C)c(ccc31)C2CC(=O)O (single isomer, unassigned) [Example 35a] | 33600
Cc1ccc2cc1[C@@H](C)N1Cc3cc(ccc3OS1(=O)=O)OCCOCCCn1nnc3c(C)c(ccc31)[C@@H]2CC(=O)O [Example 26b] | 12.2
Cc1ccc2cc1CN1Cc3cc(ccc3OS1(=O)=O)Oc1ccccc1NCCCn1nnc3c(C)c(ccc31)C2CC(=O)O (single isomer, unassigned) [Example 71a] | 19.3
COc1cc2c3cc1OCCCCn1nnc4c(C)c(ccc41)C(CC(=O)O)c1ccc(C)c(c1)CN(C3)S(=O)(=O)O2 (single isomer, unassigned) [Example 25a] | 0.562

Now examine the next entry.
The measured Kd associated with Cc1ccc2cc1[C@@H](C)N1Cc3cc(ccc3OS1(=O)=O)OCCCCCn1nnc3c(C)c(ccc31)[C@@H]2CC(=O)O [Example 20b] reads 2.3

---

- target: Keap1 (A321-C624) (h) (Homo sapiens, UniProt Q14145)
- Construct: His-Thromb-KEAP1(A321-C624) acquired from Novalix (batch PU-P01) was immobilized covalently by amine coupling; His tag (N); thrombin cleavage site (Thromb) (N)
- Sequence (Q14145 321-624): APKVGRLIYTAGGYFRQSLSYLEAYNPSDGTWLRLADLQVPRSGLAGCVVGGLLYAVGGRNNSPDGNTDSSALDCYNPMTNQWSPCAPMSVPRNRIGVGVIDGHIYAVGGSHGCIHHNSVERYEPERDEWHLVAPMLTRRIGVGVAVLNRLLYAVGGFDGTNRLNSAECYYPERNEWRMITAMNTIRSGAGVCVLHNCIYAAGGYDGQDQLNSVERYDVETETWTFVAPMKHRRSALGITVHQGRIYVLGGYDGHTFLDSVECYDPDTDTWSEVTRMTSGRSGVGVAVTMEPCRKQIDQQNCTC
- protocol description: Surface Plasmon Resonance binding assay to Kelch domain of KEAP1
- measurement context: Biacore T200, 25° C., immobilized His-Thromb-KEAP1(A321-C624), single cycle kinetics, KD=kd/ka from 1:1 fit; read-out: Keap1 (A321-C624) (h) direct/SPR (KD)
pKd: −log10 of the molar value.
Use 8 as the dividing line for pKd, with the line itself on the 1 (yes) side and lower values as 0 (no).

Past entries and their recorded results:
Cc1ccc2cc1CN1Cc3cc(ccc3N(C)S1(=O)=O)OCCCCn1nnc3c(C)c(ccc31)C2CC(=O)O (single isomer, unassigned) [Example 39a] | 1 (yes)
Cc1c2ccc3c1nnn3CCCCOc1ccc3c(c1)CN(Cc1cccc(c1)C2CC(=O)O)S(=O)(=O)O3 (centres unmarked) [Example 6] | 0 (no)
Cc1ccc2cc1CN1Cc3cc(cc(F)c3OS1(=O)=O)OCCCCn1nnc3c(C)c(ccc31)C2CC(=O)O (single isomer, unassigned) [Example 17b] | 1 (yes)

# evaluate next
Assess whether reported pKd for Cc1ccc2cc1CN1Cc3cc(c(Cl)cc3OS1(=O)=O)OCCCCn1nnc3c(C)c(ccc31)C2CC(=O)O (single isomer, unassigned) [Example 22a] sits at 8 or higher.
1 (yes)

---

- target: Keap1 (A321-C624) (h) (Homo sapiens)
- Construct: His-Thromb-KEAP1(A321-C624) acquired from Novalix (batch PU-P01) was immobilized covalently by amine coupling; His tag (N); thrombin cleavage site (Thromb) (N)
- protocol description: Surface Plasmon Resonance binding assay to Kelch domain of KEAP1
- measurement context: Biacore T200, 25° C., immobilized His-Thromb-KEAP1(A321-C624), single cycle kinetics, KD=kd/ka from 1:1 fit; read-out: Keap1 (A321-C624) (h) direct/SPR (KD)
reported property: Kd (nM)
Number in nM, nothing else.

Cc1c(F)cc2cc1CN1Cc3cc(ccc3OS1(=O)=O)OCCCCn1nnc3c(C)c(ccc31)C2CC(=O)O (single isomer, unassigned) [Example 18b] | 1.01
Cc1ccc2cc1CN1Cc3cc(ccc3OS1(=O)=O)OCCCCn1nnc3c(C)c(ccc31)[C@H]2CC(=O)O | 1.07
Cc1ccc2cc1[C@@H](C)N1Cc3cc(ccc3OS1(=O)=O)OCCCCn1nnc3c(C)c(ccc31)[C@H]2CC(=O)O | 1.05

The measured Kd associated with Cc1ccc2cc1[C@@H](C)N1Cc3cc(ccc3OS1(=O)=O)OCCCOCCn1nnc3c(C)c(ccc31)[C@@H]2CC(=O)O [Example 27a] reads 14.2
